Test system: Haemophilus influenzae Holt
experiment: standard agar-dilution assay, MIC
Format: cell-based
condition_label: ampicillin sensitive strain
measured_parameter: MIC (minimal inhibitory concentration)

In the examples that follow, each entry is paired with its recorded MIC (minimal inhibitory concentration).
CCC1OC(=O)CC(O)C(C)C(OC2OC(C)C(OC3CC(C)(O)C(OC(=O)C(Cl)(Cl)Cl)C(C)O3)C(N(C)C)C2OC(C)=O)C(CC=O)CC(C)C(=O)C=CC(C)=CC1COC(=O)C(Cl)(Cl)Cl (stereo not shown) :: 32
CCC1OC(=O)CC(O)C(C)C(OC2OC(C)C(OC3CC(C)(O)C(OC(=O)Cc4ccccc4)C(C)O3)C(N(C)C)C2O)C(CC=O)CC(C)C(=O)C=CC(C)=CC1COC(=O)Cc1ccccc1 (stereo not shown) :: 64
CCC(=O)OC1CC(=O)OC(CC)C(COC(=O)C(Cl)(Cl)Cl)C=C(C)C=CC(=O)C(C)CC(CC=O)C(OC2OC(C)C(OC3CC(C)(O)C(OC(=O)CC)C(C)O3)C(N(C)C)C2OC(C)=O)C1C (stereo not shown) :: 64
CCC(=O)OC1CC(=O)OC(CC)C(CO)C=C(C)C=CC(=O)C(C)CC(CC=O)C(OC2OC(C)C(OC3CC(C)(O)C(OC(=O)CC)C(C)O3)C(N(C)C)C2O)C1C (stereo not shown) :: 16

Give the measured MIC (minimal inhibitory concentration) of CCC1OC(=O)CC(O)C(C)C(OC2OC(C)C(OC3CC(C)(O)C(OC(C)=O)C(C)O3)C(N(C)C)C2O)C(CC=O)CC(C)C(=O)C=CC(C)=CC1COC(C)=O (stereo not shown) . 16

Give the measured MIC (minimal inhibitory concentration) of CCC1OC(=O)CC(OC(=O)C(Cl)(Cl)Cl)C(C)C(OC2OC(C)C(OC3CC(C)(O)C(OC(=O)C(Cl)(Cl)Cl)C(C)O3)C(N(C)C)C2OC(C)=O)C(CC=O)CC(C)C(=O)C=CC(C)=CC1COC(=O)C(Cl)(Cl)Cl (stereo not shown) . 128

Give the measured MIC (minimal inhibitory concentration) of CCC(=O)OC1C(C)OC(OC2C(C)OC(OC3C(CC=O)CC(C)C(=O)C=CC(C)=CC(CO)C(CC)OC(=O)CC(O)C3C)C(O)C2N(C)C)CC1(C)O (stereo not shown) . 4

* * *

System: Staphylococcus aureus V41
experiment: standard agar-dilution assay, MIC
Assay type: cell-based
condition_label: Staphylococcus aureus V41, penicillin resistant strain
measured_parameter: MIC (minimal inhibitory concentration)

In the examples that follow, each entry is paired with its recorded MIC (minimal inhibitory concentration).
CCC(=O)OCC1C=C(C)C=CC(=O)C(C)CC(CC=O)C(OC2OC(C)C(OC3CC(C)(O)C(OC(=O)CC)C(C)O3)C(N(C)C)C2OC(C)=O)C(C)C(O)CC(=O)OC1CC (stereo not shown) :: 1
CCC1OC(=O)CC(O)C(C)C(OC2OC(C)C(OC3CC(C)(O)C(OC(=O)Cc4ccccc4)C(C)O3)C(N(C)C)C2O)C(CC=O)CC(C)C(=O)C=CC(C)=CC1C (stereo not shown) :: 16
CCC(=O)OC1CC(=O)OC(CC)C(CO)C=C(C)C=CC(=O)C(C)CC(CC=O)C(OC2OC(C)C(OC3CC(C)(O)C(OC(=O)CC)C(C)O3)C(N(C)C)C2O)C1C (stereo not shown) :: 1

Field: MIC (minimal inhibitory concentration) (Staphylococcus aureus V41). Entry: CCC(=O)OC1C(C)OC(OC2C(C)OC(OC3C(CC=O)CC(C)C(=O)C=CC(C)=CC(CO)C(CC)OC(=O)CC(O)C3C)C(O)C2N(C)C)CC1(C)O (stereo not shown) 0.5

Field: MIC (minimal inhibitory concentration) (Staphylococcus aureus V41). Entry: CCC1OC(=O)CC(O)C(C)C(OC2OC(C)C(OC3CC(C)(O)C(OC(=O)Cc4ccccc4)C(C)O3)C(N(C)C)C2OC(C)=O)C(CC=O)CC(C)C(=O)C=CC(C)=CC1C (stereo not shown) > 128

Field: MIC (minimal inhibitory concentration) (Staphylococcus aureus V41). Entry: CCC1OC(=O)CC(O)C(C)C(OC2OC(C)C(OC3CC(C)(O)C(OC(=O)CC(C)C)C(C)O3)C(N(C)C)C2O)C(CC=O)CC(C)C(=O)C=CC(C)=CC1C (stereo not shown) 1

Field: MIC (minimal inhibitory concentration) (Staphylococcus aureus V41). Entry: CCC(=O)OC1CC(=O)OC(CC)C(COC(=O)C(Cl)(Cl)Cl)C=C(C)C=CC(=O)C(C)CC(CC=O)C(OC2OC(C)C(OC3CC(C)(O)C(OC(=O)CC)C(C)O3)C(N(C)C)C2OC(C)=O)C1C (stereo not shown) 1

Field: MIC (minimal inhibitory concentration) (Staphylococcus aureus V41). Entry: CCC1OC(=O)CC(O)C(C)C(OC2OC(C)C(OC3CC(C)(O)C(OC(=O)C(Cl)(Cl)Cl)C(C)O3)C(N(C)C)C2OC(C)=O)C(CC=O)CC(C)C(=O)C=CC(C)=CC1COC(=O)C(Cl)(Cl)Cl (stereo not shown) 8

Field: MIC (minimal inhibitory concentration) (Staphylococcus aureus V41). Entry: CCC1OC(=O)CC(OC(=O)C(Cl)(Cl)Cl)C(C)C(OC2OC(C)C(OC3CC(C)(O)C(O)C(C)O3)C(N(C)C)C2OC(C)=O)C(CC=O)CC(C)C(=O)C=CC(C)=CC1COC(=O)C(Cl)(Cl)Cl (stereo not shown) 2

Field: MIC (minimal inhibitory concentration) (Staphylococcus aureus V41). Entry: CCC(=O)OC1CC(=O)OC(CC)C(C)C=C(C)C=CC(=O)C(C)CC(CC=O)C(OC2OC(C)C(OC3CC(C)(O)C(OC(=O)CC)C(C)O3)C(N(C)C)C2OC(C)=O)C1C (stereo not shown) 1

Field: MIC (minimal inhibitory concentration) (Staphylococcus aureus V41). Entry: CCC1OC(=O)CC(O)C(C)C(OC2OC(C)C(OC3CC(C)(O)C(OC(C)=O)C(C)O3)C(N(C)C)C2OC(C)=O)C(CC=O)CC(C)C(=O)C=CC(C)=CC1COC(C)=O (stereo not shown) 0.5

Field: MIC (minimal inhibitory concentration) (Staphylococcus aureus V41). Entry: CCC1OC(=O)CC(O)C(C)C(OC2OC(C)C(OC3CC(C)(O)C(OC(C)=O)C(C)O3)C(N(C)C)C2O)C(CC=O)CC(C)C(=O)C=CC(C)=CC1COC(C)=O (stereo not shown) 0.25

Field: MIC (minimal inhibitory concentration) (Staphylococcus aureus V41). Entry: CCC(=O)OCC1C=C(C)C=CC(=O)C(C)CC(CC=O)C(OC2OC(C)C(OC3CC(C)(O)C(OC(=O)CC)C(C)O3)C(N(C)C)C2OC(C)=O)C(C)C(OC(=O)CC)CC(=O)OC1CC (stereo not shown) 1

* * *

System: Streptococcus pyogenes C203
experiment: standard agar-dilution assay, MIC
Format: cell-based
Catalogue of molecules with associated MIC (minimal inhibitory concentration)
Respond using a number only.

In the examples that follow, each entry is paired with its recorded MIC (minimal inhibitory concentration).
CCC1OC(=O)CC(OC(=O)C(Cl)(Cl)Cl)C(C)C(OC2OC(C)C(OC3CC(C)(O)C(O)C(C)O3)C(N(C)C)C2OC(C)=O)C(CC=O)CC(C)C(=O)C=CC(C)=CC1COC(=O)C(Cl)(Cl)Cl (centres unmarked) :: 0.5
CCC(=O)OCC1C=C(C)C=CC(=O)C(C)CC(CC=O)C(OC2OC(C)C(OC3CC(C)(O)C(OC(=O)CC)C(C)O3)C(N(C)C)C2OC(C)=O)C(C)C(O)CC(=O)OC1CC (centres unmarked) :: 0.25
CCC(=O)OC1C(C)OC(OC2C(C)OC(OC3C(CC=O)CC(C)C(=O)C=CC(C)=CC(C)C(CC)OC(=O)CC(O)C3C)C(O)C2N(C)C)CC1(C)O (centres unmarked) :: 0.5
CCC1OC(=O)CC(O)C(C)C(OC2OC(C)C(OC3CC(C)(O)C(OC(=O)CC(C)C)C(C)O3)C(N(C)C)C2O)C(CC=O)CC(C)C(=O)C=CC(C)=CC1C (centres unmarked) :: 0.25

Could you now consider this next molecule?
Give the measured MIC (minimal inhibitory concentration) of CCC1OC(=O)CC(O)C(C)C(OC2OC(C)C(OC3CC(C)(O)C(OC(C)=O)C(C)O3)C(N(C)C)C2O)C(CC=O)CC(C)C(=O)C=CC(C)=CC1COC(C)=O (centres unmarked) . 0.25

* * *

Catalogue of compounds with associated MIC (minimal inhibitory concentration)
System: Streptococcus pyogenes C203
experiment: standard agar-dilution assay, MIC
Type: cell-based
Respond using a number only.

In the examples that follow, each entry is paired with its recorded MIC (minimal inhibitory concentration).
CCC1OC(=O)CC(OC(=O)C(Cl)(Cl)Cl)C(C)C(OC2OC(C)C(OC3CC(C)(O)C(OC(=O)C(Cl)(Cl)Cl)C(C)O3)C(N(C)C)C2OC(C)=O)C(CC=O)CC(C)C(=O)C=CC(C)=CC1COC(=O)C(Cl)(Cl)Cl (stereo not shown) :: 8
CCC1OC(=O)CC(O)C(C)C(OC2OC(C)C(OC3CC(C)(O)C(OC(=O)COc4ccccc4)C(C)O3)C(N(C)C)C2OC(C)=O)C(CC=O)CC(C)C(=O)C=CC(C)=CC1COC(=O)COc1ccccc1 (stereo not shown) :: 8
CCC(=O)OCC1C=C(C)C=CC(=O)C(C)CC(CC=O)C(OC2OC(C)C(OC3CC(C)(O)C(OC(=O)CC)C(C)O3)C(N(C)C)C2O)C(C)C(O)CC(=O)OC1CC (stereo not shown) :: 0.25
CCC1OC(=O)CC(O)C(C)C(OC2OC(C)C(OC3CC(C)(O)C(OC(=O)Cc4ccccc4)C(C)O3)C(N(C)C)C2O)C(CC=O)CC(C)C(=O)C=CC(C)=CC1C (stereo not shown) :: 4
CCC(=O)OCC1C=C(C)C=CC(=O)C(C)CC(CC=O)C(OC2OC(C)C(OC3CC(C)(O)C(OC(=O)CC)C(C)O3)C(N(C)C)C2O)C(C)C(OC(=O)CC)CC(=O)OC1CC (stereo not shown) :: 0.25
CCC(=O)OC1CC(=O)OC(CC)C(COC(=O)C(Cl)(Cl)Cl)C=C(C)C=CC(=O)C(C)CC(CC=O)C(OC2OC(C)C(OC3CC(C)(O)C(OC(=O)CC)C(C)O3)C(N(C)C)C2OC(C)=O)C1C (stereo not shown) :: 0.5
CCC(=O)OC1CC(=O)OC(CC)C(C)C=C(C)C=CC(=O)C(C)CC(CC=O)C(OC2OC(C)C(OC3CC(C)(O)C(OC(=O)CC)C(C)O3)C(N(C)C)C2OC(C)=O)C1C (stereo not shown) :: 0.5
CCC1OC(=O)CC(O)C(C)C(OC2OC(C)C(OC3CC(C)(O)C(OC(=O)Cc4ccccc4)C(C)O3)C(N(C)C)C2O)C(CC=O)CC(C)C(=O)C=CC(C)=CC1COC(=O)Cc1ccccc1 (stereo not shown) :: 0.25

Field: MIC (minimal inhibitory concentration) (Streptococcus pyogenes C203). Entry: CCC(=O)OC1CC(=O)OC(CC)C(CO)C=C(C)C=CC(=O)C(C)CC(CC=O)C(OC2OC(C)C(OC3CC(C)(O)C(OC(=O)CC)C(C)O3)C(N(C)C)C2O)C1C (stereo not shown) 0.25

Field: MIC (minimal inhibitory concentration) (Streptococcus pyogenes C203). Entry: CCC1OC(=O)CC(O)C(C)C(OC2OC(C)C(OC3CC(C)(O)C(OC(=O)C(Cl)(Cl)Cl)C(C)O3)C(N(C)C)C2OC(C)=O)C(CC=O)CC(C)C(=O)C=CC(C)=CC1COC(=O)C(Cl)(Cl)Cl (stereo not shown) 2

Data credit: patent US4436733A
